# TEST_SYSTEM: human A2A receptor (A2AR) (Homo sapiens, UniProt P29274)
# Sequence (P29274 whole entry): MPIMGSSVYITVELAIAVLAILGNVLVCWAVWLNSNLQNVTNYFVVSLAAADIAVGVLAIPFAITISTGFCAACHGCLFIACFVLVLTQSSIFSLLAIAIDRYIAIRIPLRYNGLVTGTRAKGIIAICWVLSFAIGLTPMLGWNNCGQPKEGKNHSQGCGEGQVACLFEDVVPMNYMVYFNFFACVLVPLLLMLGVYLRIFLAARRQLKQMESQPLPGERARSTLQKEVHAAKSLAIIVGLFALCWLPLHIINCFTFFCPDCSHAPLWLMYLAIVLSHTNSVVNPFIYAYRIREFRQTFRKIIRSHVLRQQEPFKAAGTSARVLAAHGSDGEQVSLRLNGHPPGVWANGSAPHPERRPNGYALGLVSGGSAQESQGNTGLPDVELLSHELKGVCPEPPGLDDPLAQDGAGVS
# ASSAY_METHOD_TEXT: Luciferase reporter assay (HEK293-A2AR-luc2p/CRE/Hygro cells, 3 nM CGS21680)
# CONDITION_INFO: 3 nM CGS21680, 5 h incubation
Assign pIC50 to each entry below.
Worth noting: pIC50 values are minus log10 of concentrations stated in mol/L.

What value of pIC50 has been recorded for this entry: COCCOc1ccc(N2CCN(C(=O)C(c3ccccc3F)n3ncc4c3nc(N)n3nc(-c5ccco5)nc43)CC2)cc1 (stereo not shown) [Compound A43]
9.05

Any idea what pIC50 was measured for Nc1nc2c(cnn2C(C(=O)N2CCc3cccnc3C2)c2ccccc2)c2nc(-c3ccco3)nn12 (stereo not shown) ?
8.47

So what's the measured pIC50 for this one? CCCCC(C(=O)N1CCN(c2ccc(OCCNC)cc2)CC1)n1ncc2c1nc(N)n1nc(-c3ccco3)nc21 (stereo not shown)
8.24

Fill blank: measured pIC50 of the compound COCCOc1ccc(N2CCN(C(=O)C(c3ccc4ccccc4c3)n3ncc4c3nc(N)n3nc(-c5ccco5)nc43)CC2)cc1 (stereo not shown) is ____.
7.88

Using the record for COCCOc1cc(F)c(N2CCN(C(=O)C(c3ccccc3)n3ncc4c3nc(N)n3nc(-c5ccco5)nc43)CC2)cc1F (stereo not shown) , report its pIC50.
8.28

Query (compound): CCCC(C(=O)N1CCN(c2ccc(OCCOCCOC)cc2)CC1)n1ncc2c1nc(N)n1nc(-c3ccco3)nc21 (single isomer, unassigned) [Compound A6a] ; field requested: pIC50
8.30

Item under review: CC(C(=O)N1CCC[C@@H](O)C1)(c1ccccc1)n1ncc2c1nc(N)n1nc(-c3ccco3)nc21 (stereo partly shown) . Reported pIC50?
6.95

====

# TEST_SYSTEM: human A2A receptor (A2AR) (Homo sapiens, UniProt P29274)
# ASSAY_METHOD_TEXT: Luciferase reporter assay (HEK293-A2AR-luc2p/CRE/Hygro cells, 3 nM CGS21680)
# CONDITION_INFO: 3 nM CGS21680, 5 h incubation
REPORTED_METRIC: pIC50
Conceptually, pIC50 converts a concentration in mol/L into minus its log10.

Record request: pIC50 value, item CN1CCN(CCCOc2ccc(N3CCN(C(=O)[C@](C)(c4ccccc4)n4ncc5c4nc(N)n4nc(-c6ccco6)nc54)CC3)cc2)CC1 [Compound A82a]
7.91

GET /values?readout=pIC50&item= CN1CCN(CCCOc2ccc(N3CCN(C(=O)[C@@](C)(c4ccccc4)n4ncc5c4nc(N)n4nc(-c6ccco6)nc54)CC3)cc2)CC1 [Compound A82b]
8.31

Quick one: pIC50 of COCCOc1ccc(N2CCN(C(=O)[C@](C)(c3ccccc3)n3ncc4c3nc(N)n3nc(-c5ccco5)nc43)CC2)c(F)c1 [Compound A64a] ?
7.76

Tell me the measured pIC50 of CCCC(C(=O)N1CCN(c2ccc(OCCOC)c(F)c2)CC1)n1ncc2c1nc(N)n1nc(-c3ccco3)nc21 (centres unmarked) [Compound A53] , please.
8.30

Param item = COCCOc1ccc(N2CCN(C(=O)C(C)(c3ccccc3)n3ncc4c3nc(N)n3nc(-c5ccco5)nc43)CC2)cc1F (centres unmarked) [Compound A66] ; retrieve measured pIC50.
8.19

// lookup pIC50 for COCCOc1cccc2c1CN(C(=O)C(c1ccccc1)n1ncc3c1nc(N)n1nc(-c4ccco4)nc31)CC2 (centres unmarked) [Compound B16]
8.25

What measured pIC50 goes with CO[C@@H]1CCN(C(=O)C(C)(c2ccccc2)n2ncc3c2nc(N)n2nc(-c4ccco4)nc32)C1 (some centres unmarked) [Compound B30] ?
7.01

Reported pIC50 for COCCOc1ccc(N2CCN(C(=O)C(C)n3cc4c(nc(N)n5nc(-c6ccco6)nc45)n3)CC2)cc1 (centres unmarked) [Compound C1] : what is it?
7.55

Record request: pIC50 value, item COCCOc1ccc(N2CCN(C(=O)C(c3ccc(F)c(F)c3)n3ncc4c3nc(N)n3nc(-c5ccco5)nc43)CC2)cc1 (centres unmarked) [Compound A40]
7.63

Need pIC50 of COCCOc1ccc(N2CCN(C(=O)C(C)(C)n3cc4c(nc(N)n5nc(-c6ccco6)nc45)n3)CC2)cc1 [Compound C3] , thanks.
5.73

Need pIC50 of COCCOc1ccc(N2CCN(C(=O)C(C)(c3ccccc3OC)n3ncc4c3nc(N)n3nc(-c5ccco5)nc43)CC2)cc1 (centres unmarked) [Compound A93] , thanks.
9.22

Could you share which pIC50 value was measured for COCCOCCOc1ccc(N2CCN(C(=O)C(C)n3ncc4c3nc(N)n3nc(-c5ccco5)nc43)CC2)cc1 (centres unmarked) [Compound A9] ?
7.23

For the compound COCCOc1ccc(N2CCN(C(=O)C(C3CC3)n3ncc4c3nc(N)n3nc(-c5ccco5)nc43)CC2)cc1 (centres unmarked) [Compound A15] , what pIC50 is on record?
8.08

Please give the measured pIC50 for this compound: CC(C(=O)N1CCN(c2ccc(OCCO)cc2)CC1)(c1ccccc1)n1ncc2c1nc(N)n1nc(-c3ccco3)nc21 (centres unmarked) [Compound A108]
8.46

Which measured pIC50 value corresponds to Nc1nc2c(cnn2C(C(=O)N2CCc3ncccc3C2)c2ccccc2)c2nc(-c3ccco3)nn12 (centres unmarked) [Compound B13] ?
8.55

So what does the record say about pIC50 for Nc1nc2c(cnn2C(C(=O)N2CCc3ccc(F)cc3C2)c2ccccc2)c2nc(-c3ccco3)nn12 (centres unmarked) [Compound B11] ?
8.66

Given the compound C[C@](C(=O)N1CCN(c2ccc(F)cc2)CC1)(c1ccccc1)n1ncc2c1nc(N)n1nc(-c3ccco3)nc21 [Compound A70b] , what is its reported pIC50?
8.47

Entry C[C@@](C(=O)N1CCN(c2ccc(OCCN3CCOCC3)cc2)CC1)(c1ccccc1)n1ncc2c1nc(N)n1nc(-c3ccco3)nc21 [Compound A80a] has what pIC50?
8.13

What measured pIC50 goes with CCCC(C(=O)N1CCN(c2ccc(OCCOC)cc2)CC1)n1ncc2c1nc(N)n1nc(-c3ccco3)nc21 (single isomer, unassigned) [Compound A5a] ?
8.66

Item under review: CCCC(C(=O)N1CCN(c2ccc(OCCOC)cc2)CC1)n1cc2c(nc(N)n3nc(-c4ccco4)nc23)n1 (centres unmarked) [Compound C5] . Reported pIC50?
6.88

Using the record for CCCCC(C(=O)N1CCN(c2ccc(OCCOCCOC)cc2)CC1)n1ncc2c1nc(N)n1nc(-c3ccco3)nc21 (single isomer, unassigned) [Compound A11a] , report its pIC50.
8.34

// query pIC50 value for entry CC(C)CC(C(=O)N1CCN(c2ccc(F)cc2F)CC1)n1ncc2c1nc(N)n1nc(-c3ccco3)nc21 (single isomer, unassigned) [Compound A22a]
6.61

Name the reported pIC50 value associated with the compound CNCCOc1ccc(N2CCN(C(=O)C(C)n3ncc4c3nc(N)n3nc(-c5ccco5)nc43)CC2)cc1 (centres unmarked) [Compound A30]
7.66

Look up pIC50: COCCOc1ccc(N2CCN(C(=O)C(CC(C)C)n3ncc4c3nc(N)n3nc(-c5ccco5)nc43)CC2)cc1 (single isomer, unassigned) [Compound A16a]
9.52

Could you tell me which pIC50 is on file for COCCOc1ccc2c(c1)CN(C(=O)C(c1ccccc1)n1ncc3c1nc(N)n1nc(-c4ccco4)nc31)CC2 (centres unmarked) [Compound B14] ?
8.24

I am curious: what pIC50 value has been reported for COCCOc1ccc(N2CCN(C(=O)C(c3ccccc3)n3ncc4c3nc(N)n3nc(-c5ccco5)nc43)CC2)c(F)c1 (centres unmarked) [Compound A44] ?
8.70

====

# TEST_SYSTEM: human A2A receptor (A2AR) (Homo sapiens, UniProt P29274)
# ASSAY_METHOD_TEXT: Luciferase reporter assay (HEK293-A2AR-luc2p/CRE/Hygro cells, 3 nM CGS21680)
# CONDITION_INFO: 3 nM CGS21680, 5 h incubation
REPORTED_METRIC: IC50 (nM)
Response body: numeric value in nM, unit text excluded.

Name the recorded IC50 for CCCC(C(=O)N1CCN(c2ccc(OCCOC)cc2)CC1)n1ncc2c1nc(N)n1nc(-c3ccco3)nc21 (stereo not shown) [Compound A5] .
9.1

Entry COCCOc1ccc(N2CCN(C(=O)C(C)(c3ccccc3)n3ncc4c3nc(N)n3nc(-c5nccnc5C)nc43)CC2)cc1 (stereo not shown) : reported IC50 = ?
31.1

What value of IC50 has been recorded for this entry: CC(C(=O)N1CCN(c2ccc(OCCN3CCCC3)cc2)CC1)(c1ccccc1)n1ncc2c1nc(N)n1nc(-c3ccco3)nc21 (stereo not shown)
3.9

// returns reported IC50 for input COCCOc1ccc(N2CCN(C(=O)C(C)(c3cccc(F)c3)n3ncc4c3nc(N)n3nc(-c5ccco5)nc43)CC2)cc1 (stereo not shown)
6.8

Param item = COCCOCCOc1ccc(N2CCN(C(=O)C(C)(C)n3cc4c(nc(N)n5nc(-c6ccco6)nc45)n3)CC2)cc1 ; retrieve measured IC50.
3180

Please report the recorded IC50 for COCCOc1ccc(N2CCN(C(=O)C(c3ccc(C(F)(F)F)cc3)n3ncc4c3nc(N)n3nc(-c5ccco5)nc43)CC2)cc1 (stereo not shown) .
75.7

Recorded IC50 for CC(C(=O)N1CCCC1)(c1ccccc1)n1ncc2c1nc(N)n1nc(-c3ccco3)nc21 (stereo not shown) , please?
24.9

Reported IC50, molecule CCCC(C(=O)N1CCN(c2ccc(OCCOC)cc2)CC1)n1ncc2c1nc(N)n1nc(-c3ccco3)nc21 (single isomer, unassigned) [Compound A5b] : ____
50

I'd like to know its IC50. The molecule in question is CC(C(=O)N1CCN(c2ccc(OCCN(C)C)cc2)CC1)n1cc2c(nc(N)n3nc(-c4ccco4)nc23)n1 (stereo not shown)
46.3

Look up IC50 for this molecule: Nc1nc2c(cnn2C(C(=O)N2CCN(c3ccc(F)cc3)CC2)c2ccccc2)c2nc(-c3ccco3)nn12 (stereo not shown)
3.2

Form field: reported IC50 of COCCOc1ccc(N2CCN(C(=O)[C@@](C)(c3ccccc3)n3ncc4c3nc(N)n3nc(-c5ccco5)nc43)CC2)cc1 [Compound A63b]
3.3

Consider the molecule shown here: CCCC(C(=O)N1CCN(c2ccc(OCCOC)cc2F)CC1)n1ncc2c1nc(N)n1nc(-c3ccco3)nc21 (single isomer, unassigned) [Compound A24a] What is its recorded IC50?
1

Consider the molecule COCCOc1ccc(N2CCN(C(=O)C(c3ccccc3)n3ncc4c3nc(N)n3nc(-c5ccco5)nc43)[C@@H](C)C2)cc1 (stereo partly shown) and give its measured IC50.
8.7
